assay: compound toxicity assay (3H-LEU); assay type: cell-based
Reported metric: CC50 (µg/mL)
The reply should be a number in µg/mL, with the unit left off.

The examples below pair each entry with its known result.
>  <Test smiles>
CCCCNc1c2cc(OC)ccc2nc2[nH]nc(C)c12

>  <Reported metric>
CC50

>  <Recorded value>
3.2

$$$$
>  <Test smiles>
CCCCNc1c2cc(C)ccc2nc2[nH]nc(C)c12

>  <Reported metric>
CC50

>  <Recorded value>
21.5

$$$$
>  <Test smiles>
CCCCNc1c2cc(OC)cc(C)c2nc2[nH]nc(C)c12

>  <Reported metric>
CC50

>  <Recorded value>
21.5

$$$$
>  <Test smiles>
COc1ccc2nc3[nH]nc(C)c3c(NCCN3CCOCC3)c2c1

>  <Reported metric>
CC50

>  <Recorded value>
100

$$$$

Then this molecule:
input: Find the recorded CC50 belonging to COc1ccc2nc3[nH]nc(C)c3c(NCCO)c2c1 and report it.
output: 8.2
